The entries below are paired with their reported IC50.
# Target desc: Human MAT2A (Homo sapiens, UniProt P31153)
# Construct: Human MAT2A: Cepter, amino acids 1-395 Clone ID 334, lot 00023-148; purchased Cepter clone ID 334, lot 00023-148
# Sequence (P31153 whole entry, the tested form may be a part): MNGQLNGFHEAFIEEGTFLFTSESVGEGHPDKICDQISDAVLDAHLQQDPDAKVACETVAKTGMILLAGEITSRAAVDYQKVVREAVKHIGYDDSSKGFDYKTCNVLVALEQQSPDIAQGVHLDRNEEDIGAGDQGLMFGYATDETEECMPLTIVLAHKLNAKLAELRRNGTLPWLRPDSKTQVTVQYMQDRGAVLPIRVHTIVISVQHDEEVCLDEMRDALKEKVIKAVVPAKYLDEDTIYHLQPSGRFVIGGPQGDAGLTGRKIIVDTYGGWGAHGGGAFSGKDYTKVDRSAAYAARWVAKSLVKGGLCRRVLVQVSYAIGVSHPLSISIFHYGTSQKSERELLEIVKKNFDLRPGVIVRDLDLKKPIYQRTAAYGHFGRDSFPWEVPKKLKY
# Experimental details: Phosphate Sensor Fluorescence Assay (Biologic Example A)
# Format: biochemical
# Condition context: MAT2A inhibition, procedure of Biological Example A; 500 uM L-methionine, 500 uM ATP, 0.1% BGG

Sample answers from the record:
[[record]]
smiles_data = "COc1cc(C(F)(F)F)cc2c(-c3ccccc3C)c(=O)nc(N)n12"
target_desc = "Human MAT2A (Homo sapiens, UniProt P31153)"
property_name = "IC50"
value_measured = "200 to 500 nM"

[[record]]
smiles_data = "Cc1ccccc1-c1c(=O)nc(N)n2ccc(C(F)(F)F)cc12"
target_desc = "Human MAT2A (Homo sapiens, UniProt P31153)"
property_name = "IC50"
value_measured = "10 to 200 nM"

[[record]]
smiles_data = "Nc1nc(=O)c(-c2ccccc2)c2cc(C(F)(F)F)ccn12"
target_desc = "Human MAT2A (Homo sapiens, UniProt P31153)"
property_name = "IC50"
value_measured = "10 to 200 nM"


Now for another entry.
Reported IC50, compound Nc1nc(=O)c(-c2ccccc2Cl)c2cc(C(F)(F)F)ccn12 : ____
10 to 200 nM

###

The entries below are paired with their reported IC50.
# Target desc: Human MAT2A (Homo sapiens)
# Construct: Human MAT2A: Cepter, amino acids 1-395 Clone ID 334, lot 00023-148; purchased Cepter clone ID 334, lot 00023-148
# Experimental details: Phosphate Sensor Fluorescence Assay (Biologic Example B)
# Format: biochemical
# Condition context: MAT2A inhibition, procedure of Biological Example B; 5.8 nM MAT2A, 500 uM L-methionine, 500 uM ATP, 0.01% BGG

Sample answers from the record:
[[record]]
smiles_data = "Cc1ccccc1-c1c(=O)nc(N)n2ccc(Br)cc12"
property_name = "IC50"
value_measured = "10 to 200 nM"

[[record]]
smiles_data = "CC(=O)Nc1nc(=O)c(-c2ccccc2)c2cc(C(F)(F)F)ccn12"
property_name = "IC50"
value_measured = "1000 to 10000 nM"

[[record]]
smiles_data = "Cn1nccc1-c1c(=O)nc(N)n2ccc(C(F)(F)F)cc12"
property_name = "IC50"
value_measured = "10 to 200 nM"

[[record]]
smiles_data = "CNc1nc(=O)c(-c2ccccc2)c2cc(C(F)(F)F)ccn12"
property_name = "IC50"
value_measured = "10 to 200 nM"

[[record]]
smiles_data = "CCCNc1nc(=O)c(-c2ccccc2)c2cc(C(F)(F)F)ccn12"
property_name = "IC50"
value_measured = "10 to 200 nM"

[[record]]
smiles_data = "Nc1nc(=O)c(-c2cccnc2)c2cc(C(F)(F)F)ccn12"
property_name = "IC50"
value_measured = "10 to 200 nM"


Now for another entry.
Which measured IC50 belongs to Nc1nc(=O)c(-c2ccccc2)c2cc(Br)ccn12 , tested on Human MAT2A (Homo sapiens)?
10 to 200 nM

Ref: patent US20230257377A1
